test system: A549; assay: Cytotoxicity against human A549 cells after 24 hrs by MTT assay; assay type: functional, cell-based; settings: A549, 24 h
molecules and their reported IC50
Answer with a number only, understood to be in µM.

Below are worked cases with known answers.
{"columns": ["smiles data", "uom", "IC50"],
 "data": [
  ["c1ccc(CNc2nc(Nc3ccc(-c4nc5ccccc5o4)cc3)nc(N3CCOCC3)n2)cc1", "µM", 23.4],
  ["COc1ccc(Nc2nc(Cl)nc(Nc3ccc(-c4nc5ccccc5o4)cc3)n2)cc1", "µM", 278]
]}

Reported IC50 for Clc1nc(NCc2ccccc2)nc(Nc2ccc(-c3nc4ccccc4o3)cc2)n1 was 296

Reported IC50 for Fc1ccc(Nc2nc(Cl)nc(Nc3ccc(-c4nc5ccccc5o4)cc3)n2)cc1 was 254

Reported IC50 for Clc1nc(Nc2ccccc2)nc(Nc2ccc(-c3nc4ccccc4o3)cc2)n1 was 225

Reported IC50 for COc1ccc(Nc2nc(Nc3ccc(-c4nc5ccccc5o4)cc3)nc(N3CCOCC3)n2)cc1 was 12.9

Reported IC50 for Fc1ccc(Nc2nc(Nc3ccc(-c4nc5ccccc5o4)cc3)nc(N3CCOCC3)n2)cc1 was 26.7

Reported IC50 for c1ccc(Nc2nc(Nc3ccc(-c4nc5ccccc5o4)cc3)nc(N3CCOCC3)n2)cc1 was 22

Hello, the source for this data is ChEMBL document CHEMBL3044566, in case you need it.
